target_under_test: GABAA receptor
condition_summary: read-out: GABAA receptors Ki ± SEM; rat cerebral cortex, [3H]-muscimol 1 nM
pKi: −log10 of the molar value.

# compound, pKi
rows = [
    ("CN1C(=O)CN=C(c2ccccc2)c2cc(Cl)ccc21 [Diazepam, diazepam]", 8.25),
]
